Cited source for all entries: patent US20100130737A1

Assay readout: melting point (°C)
Write the answer as a number in °C, unit excluded.

Example compounds with recorded melting point:
[[record]]
compound = "O=C(CN1CCN(c2ccccc2)CC1)NC1(C(=O)O)Cc2ccc(-c3ccc(Cl)cc3)cc2C1 (stereo not shown)"
measured_number = 247

[[record]]
compound = "O=C(N[C@@H](Cc1ccc(OCc2ccccc2)cc1)C(=O)O)c1cn2cccc(OCc3ccc(Cl)cc3)c2n1"
measured_number = 210

[[record]]
compound = "CCc1ccc(COc2ccc(C[C@H](NC(=O)c3cc4ccc(-c5ccc(Cl)cc5)cc4o3)C(=O)O)cc2)cc1"
measured_number = 194

[[record]]
compound = "O=C(CCc1ccc(F)cc1)NC1(C(=O)O)Cc2ccc(-c3ccc(Cl)cc3)cc2C1 (stereo not shown)"
measured_number = 220

[[record]]
compound = "O=C(NC(Cc1ccc(OCc2ccccc2)cc1)c1noc(=O)[nH]1)c1cn2cc(-c3ccc(Cl)cc3)ccc2n1 (stereo not shown)"
measured_number = 167


Recorded result, O=C(N[C@@H](Cc1ccc(NCc2ccccc2)cc1)C(=O)O)c1cn2cc(-c3ccc(Cl)cc3)ccc2n1 , melting point: 260

---

The reader will find reported IC50 values listed item by item below.
- Target under test: UniProtKB Q9UPC5
- Sequence (Q9UPC5 whole entry): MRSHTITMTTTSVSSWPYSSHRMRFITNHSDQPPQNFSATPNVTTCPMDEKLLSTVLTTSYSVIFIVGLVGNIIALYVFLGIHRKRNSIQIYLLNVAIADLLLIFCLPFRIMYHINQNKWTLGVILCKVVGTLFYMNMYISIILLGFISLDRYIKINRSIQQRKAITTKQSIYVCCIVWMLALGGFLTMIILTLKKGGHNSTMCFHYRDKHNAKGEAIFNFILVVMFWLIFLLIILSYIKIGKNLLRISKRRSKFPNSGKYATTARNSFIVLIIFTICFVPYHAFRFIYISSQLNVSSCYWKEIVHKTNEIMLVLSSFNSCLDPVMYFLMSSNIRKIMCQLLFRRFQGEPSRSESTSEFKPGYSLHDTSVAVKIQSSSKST
- Experiment description: Human GPR34 antagonist activity indicated by changes in intracellular calcium concentration (FLIPR)
- Particulars: CHO cells expressing human GPR34/Gα16, against 2 μM lysoPS final concentration, Fluo-3AM

[[record]]
molecule_smiles = "Cn1c(C(=O)N[C@@H](Cc2ccc(OCc3ccccc3)cc2)C(=O)O)cc2cc(-c3ccc(Cl)cc3)ccc21"
result = "≤ 1 µM"

[[record]]
molecule_smiles = "CCc1ccc(COc2ccc(C[C@H](NC(=O)c3cn4ccc(-c5ccc(Cl)cc5)cc4n3)C(=O)O)cc2)cc1"
result = "≤ 1 µM"

[[record]]
molecule_smiles = "O=C(N[C@@H](Cc1ccc(OCc2ccccc2)cc1)C(=O)O)c1cn2nc(SCc3ccccc3)ccc2n1"
result = "≤ 1 µM"

[[record]]
molecule_smiles = "CN(C(=O)c1cn2ccc(-c3ccc(Cl)cc3)cc2n1)[C@@H](Cc1ccc(OCc2ccccc2)cc1)C(=O)O"
result = "≤ 1 µM"

[[record]]
molecule_smiles = "O=C(N[C@@H](Cc1ccc(OCc2ccccc2)cc1)C(=O)O)c1cn2cc(-c3ccccc3F)ccc2n1"
result = "≤ 1 µM"

[[record]]
molecule_smiles = "Cc1cc(-c2ccc(Cl)cc2)cn2cc(C(=O)N[C@@H](Cc3ccc(OCc4ccccc4)cc3)C(=O)O)nc12"
result = "≤ 1 µM"


Form: item O=C(N[C@@H](Cc1ccc(OCc2ccccc2)cc1)C(=O)O)c1cc2cc(-c3ccc(Cl)cc3)ccc2o1 ; test system UniProtKB Q9UPC5; IC50: ≤ 1 µM

---

The reader will find reported melting point values listed item by item below.
Counter-ions that a name gives are not always drawn.
Write the answer as a number in °C, unit excluded.

[[record]]
compound = "N#Cc1ccc(COc2ccc(C[C@H](NC(=O)c3cc4cc(-c5ccc(Cl)cc5)ccc4s3)C(=O)O)cc2)cc1 [Example C136]"
unit = "°C"
measured_number = 164

[[record]]
compound = "O=C(Cc1ccccn1)NC1(C(=O)O)Cc2ccc(-c3ccc(Cl)cc3)cc2C1 (stereo not shown) [Example B178]"
unit = "°C"
measured_number = 189

[[record]]
compound = "O=C(Cc1cccc(Cl)c1)NC1(C(=O)O)Cc2ccc(-c3ccc(Cl)cc3)cc2C1 (stereo not shown) [Example B138]"
unit = "°C"
measured_number = 234

[[record]]
compound = "O=C(NC1(C(=O)O)Cc2ccc(-c3ccc(Cl)cc3)cc2C1)c1ccc(F)cc1 (stereo not shown) [Example B133]"
unit = "°C"
measured_number = 251

[[record]]
compound = "O=C(Cc1cccnc1)NC1(C(=O)O)Cc2ccc(-c3ccc(Cl)cc3)cc2C1 (stereo not shown) (as salt: hydrochloride) [Example B175]"
unit = "°C"
measured_number = 288

[[record]]
compound = "CC(C)(C)OC(=O)N[C@H](Cc1c[nH]c2ccccc12)C(=O)NC1(C(=O)O)Cc2ccc(-c3ccc(Cl)cc3)cc2C1 (stereo partly shown) [Example B119]"
unit = "°C"
measured_number = 158

[[record]]
compound = "O=C(O)CCNC(=O)C1(NC(=O)Cc2ccc(OCc3ccc(F)cc3)cc2)Cc2ccc(-c3ccc(Cl)cc3)cc2C1 (stereo not shown) [Example B150]"
unit = "°C"
measured_number = 214

[[record]]
compound = "O=C(NC(Cc1ccc(OCc2cccc(F)c2)cc1)C(=O)O)c1cn2cc(-c3ccc(Cl)cc3)ccc2n1 (stereo not shown) [Example E10]"
unit = "°C"
measured_number = 252


Recorded result, Cc1c(C(=O)NC2(C(=O)O)Cc3ccc(Br)cc3C2)oc2cc(-c3ccc(Cl)cc3)ccc12 (stereo not shown) [Example C114] , melting point: 227

Recorded result, Cc1ccc(COc2ccc(CC(NC(=O)c3cc4ccc(-c5ccc(Cl)cc5)cc4o3)C(=O)O)cc2)cc1 (stereo not shown) [Example C158] , melting point: 204

Recorded result, N#Cc1ccc(COc2ccc(C[C@H](NC(=O)c3cn4ccc(-c5ccc(Cl)cc5)cc4n3)C(=O)O)cc2)cc1 [Example E64] , melting point: 263

Recorded result, O=C(NC1(C(=O)O)Cc2ccc(-c3ccc(Cl)cc3)cc2C1)c1ccc2ncsc2c1 (stereo not shown) [Example B137] , melting point: 210

Recorded result, O=C(N[C@@H](Cc1ccc(OCc2ccc(Cl)cc2)cc1)C(=O)O)c1cc2ccc(-c3ccc(Cl)cc3)cc2o1 [Example C159] , melting point: 195

---

The reader will find reported melting point values listed item by item below.
Write the answer as a number in °C, unit excluded.

[[record]]
compound = "N#Cc1ccc(COc2ccc(C[C@H](NC(=O)c3cc4ccc(-c5ccc(Cl)cc5)cc4o3)C(=O)O)cc2)cc1"
assay_readout = "melting point"
measured_number = 204


Recorded result, O=C(N[C@@H](Cc1ccc(OCc2ccsc2)cc1)C(=O)O)c1cn2cc(-c3ccc(Cl)cc3)ccc2n1 [Example E2] , melting point: 203

---

The reader will find reported melting point values listed item by item below.

Example compounds with recorded melting point:
[[record]]
compound = "O=C(Cc1ccc(OCc2cccc(C(=O)O)c2)cc1)NC1(C(=O)O)Cc2ccc(-c3ccc(Cl)cc3)cc2C1 (stereo not shown)"
assay_readout = "melting point"
result = "220 to 222 °C"

[[record]]
compound = "Cc1cccc(C)c1-c1ccc2c(c1)CC(NC(=O)Cc1ccc(OCc3ccc(F)cc3)cc1)(C(=O)O)C2 (stereo not shown)"
assay_readout = "melting point"
result = "210 to 212 °C"

[[record]]
compound = "O=C(N[C@@H](Cc1ccc(OCc2ccoc2)cc1)C(=O)O)c1cc2ccc(-c3ccc(Cl)cc3)cc2o1"
assay_readout = "melting point"
result = "159 to 160 °C"


Now, please, on to the next compound.
Recorded result, Cc1ccc(/C=C/c2ccc3nc(C(=O)N[C@@H](Cc4ccc(OCc5ccccc5)cc4)C(=O)O)cn3c2)cc1 , melting point: 266 to 267 °C

---

The reader will find reported melting point values listed item by item below.
Write the answer as a number in °C, unit excluded.

Example compounds with recorded melting point:
[[record]]
compound = "Cc1c(C(=O)NC2(C(=O)O)Cc3ccc(-c4ccc(Cl)cc4)cc3C2)oc2cc(-c3ccc(Cl)cc3)ccc12 (centres unmarked)"
assay_readout = "melting point"
unit = "°C"
measured_number = 257

[[record]]
compound = "O=C(N[C@@H](Cc1ccc(OCc2ccc(C(F)(F)F)cc2)cc1)C(=O)O)c1cc2cc(-c3ccc(Cl)cc3)ccc2s1"
assay_readout = "melting point"
unit = "°C"
measured_number = 198


Now, please, on to the next compound.
Recorded result, O=C(NC(Cc1ccc(OCc2ccc(F)cc2)cc1)C(=O)O)c1cn2cc(-c3ccc(Cl)cc3)ccc2n1 (centres unmarked) , melting point: 267

---

The reader will find reported melting point values listed item by item below.
Write the answer as a number in °C, unit excluded.

Example compounds with recorded melting point:
[[record]]
molecule_smiles = "CCc1ccc(COc2ccc(C[C@H](NC(=O)c3cc4cc(-c5ccc(Cl)cc5)ccc4s3)C(=O)O)cc2)cc1"
assay_readout = "melting point"
measured_number = 205

[[record]]
molecule_smiles = "O=C(N[C@@H](Cc1ccc(F)cc1)C(=O)O)c1cn2cc(-c3ccc(Cl)cc3)ccc2n1"
assay_readout = "melting point"
measured_number = 266


Recorded result, O=C(O)CN(Cc1ccc(OCc2ccccc2)cc1)C(=O)c1cn2ccc(-c3ccc(Cl)cc3)cc2n1 , melting point: 186

---

The reader will find reported melting point values listed item by item below.

Example molecules with recorded melting point:
[[record]]
molecule = "O=C(N[C@@H](Cc1ccc(OCc2ccccc2)cc1)C(=O)O)c1cn2cc(-c3ccccc3F)ccc2n1"
result = "238 °C"

[[record]]
molecule = "O=C(Cc1ccc(Oc2ccsc2)cc1)NC1(C(=O)O)Cc2ccc(-c3ccc(Cl)cc3)cc2C1 (centres unmarked)"
result = "226 to 228 °C"

[[record]]
molecule = "O=C(Cc1ccc(OCc2ccc(F)cc2)cc1)NC1(C(=O)O)Cc2ccc(-c3ccccc3Cl)cc2C1 (centres unmarked)"
result = "213 to 215 °C"


Recorded result, O=C(Cc1ccccc1Cl)NC1(C(=O)O)Cc2ccc(-c3ccc(Cl)cc3)cc2C1 (centres unmarked) , melting point: 222 °C

Recorded result, O=C(Nc1ccc(F)cc1)NC1(C(=O)O)Cc2ccc(-c3ccc(Cl)cc3)cc2C1 (centres unmarked) , melting point: 177 °C

Recorded result, O=C(N[C@@H](Cc1ccc(OCc2ccccc2)cc1)C(=O)O)c1nc2ccc(-c3ccc(Cl)cc3)cn2c1Cl , melting point: 242 to 244 °C

Recorded result, O=C(CSc1nc2ccccc2o1)NC1(C(=O)O)Cc2ccc(-c3ccc(Cl)cc3)cc2C1 (centres unmarked) , melting point: 227 to 230 °C

Recorded result, O=C(N[C@@H](Cc1ccc(OCc2ccoc2)cc1)C(=O)O)c1cn2cc(-c3ccc(Cl)cc3)ccc2n1 , melting point: 262 °C

Recorded result, O=C(Cc1ccccc1OCc1ccccc1)NC1(C(=O)O)Cc2ccc(-c3ccc(Cl)cc3)cc2C1 (centres unmarked) , melting point: 245 °C

Recorded result, Cc1nc2ccccc2n1Cc1ccc(C(=O)NC2(C(=O)O)Cc3ccc(-c4ccc(Cl)cc4)cc3C2)cc1 (centres unmarked) , melting point: 258 to 259 °C

Recorded result, O=C(Cc1ccc(OC2CCc3ccccc32)cc1)NC1(C(=O)O)Cc2ccc(-c3ccc(Cl)cc3)cc2C1 (centres unmarked) , melting point: 194 to 195 °C

Recorded result, O=C(N[C@@H](Cc1ccc(OCc2ccccc2)cc1)C(=O)O)c1ccc2nc(-c3ccc(Cl)cc3)c(Cl)n2c1 , melting point: 241 to 243 °C

Recorded result, O=C(N[C@@H](Cc1ccc(OCc2ccccc2)cc1)C(=O)O)c1cn2nc(C#Cc3ccccc3)ccc2n1 , melting point: 224 to 227 °C

Recorded result, O=C(O)CN(Cc1ccc(OCc2ccccc2)cc1)C(=O)c1cn2cc(-c3ccc(Cl)cc3)ccc2n1 , melting point: 213 to 214 °C

Recorded result, O=C(N[C@@H](Cc1ccc(OCc2ccccc2)cc1)C(=O)O)c1cn2cc(/C=C/c3ccc(Cl)cc3)ccc2n1 , melting point: 267 to 270 °C

Recorded result, O=C(Cc1ccc(Oc2nc3ccccc3s2)cc1)NC1(C(=O)O)Cc2ccc(-c3ccc(Cl)cc3)cc2C1 (centres unmarked) , melting point: 241 to 243 °C

Recorded result, O=C(Cc1ccc(OCc2ccc(F)cc2)cc1)NC1(c2nn[nH]n2)Cc2ccc(-c3ccc(Cl)cc3)cc2C1 (centres unmarked) , melting point: 108 to 110 °C
